# target.system: Nuclear receptor subfamily 1 group I member 2 (Rattus norvegicus)
# measurement.notes: Rat pregnane X receptor (rPXR) activation by small molecules, qHTS assay (AID 1346983); also: % is scaled to controls: 0 for no effect and ±100 for the full control effect; nearly all actives have a fitted effect of over 20% in size
# reported.conditions: rPXR luciferase reporter cells, One-Glo luminescence, 24 h; hits give high values
Inconclusive results are not listed.
Entries and their max activation values follow.
Give just the numeric value; % need not be written.

{"molecule": "Nc1ccn([C@@H]2O[C@H](CO)[C@@H](O)C2(F)F)c(=O)n1", "result.units": "%", "max activation": -12}
{"molecule": "Cc1ccc(C(=O)c2ccc(CC(=O)O)n2C)cc1", "result.units": "%", "max activation": -1.99}
{"molecule": "CC(C)NNC(=O)c1ccncc1", "result.units": "%", "max activation": -0.682}

Kindly note the recorded max activation for CCOC(=O)OC(C)OC1=C(C(=O)Nc2ccccn2)N(C)S(=O)(=O)c2ccccc21 (stereo not drawn) , which is -2.57

Kindly note the recorded max activation for COc1cccc(OC)c1C(=O)N[C@@H]1C(=O)N2[C@@H]1SC(C)(C)[C@@H]2C(=O)O , which is -1.79

Kindly note the recorded max activation for O=C(O)Cc1csc(-c2ccc(Cl)cc2)n1 , which is -2.73

Kindly note the recorded max activation for CO/N=C(\C(=O)N[C@@H]1C(=O)N2C(C(=O)O)=C(CSc3nc(=O)c(O)nn3C)CS[C@H]12)c1csc(N)n1 , which is -3.34

Kindly note the recorded max activation for C[N+]1(C)CCCC(OC(=O)C(O)(c2ccccc2)c2ccccc2)C1 (stereo not drawn) , which is -3.64

Kindly note the recorded max activation for Cc1ccc(-c2ncc(Cl)cc2-c2ccc(S(C)(=O)=O)cc2)cn1 , which is 7.56

Kindly note the recorded max activation for CC(C)(C)C(=O)Oc1ccc(S(=O)(=O)Nc2ccccc2C(=O)NCC(=O)O)cc1 , which is -2.02

Kindly note the recorded max activation for CC1=C(C/C=C(\C)CCC[C@H](C)CCC[C@H](C)CCCC(C)C)C(=O)c2ccccc2C1=O , which is -2.63

Kindly note the recorded max activation for O=C(O)CNC(=O)c1ccccc1 , which is -5.13

Kindly note the recorded max activation for CC(N)C12CC3CC(CC(C3)C1)C2 (stereo not drawn) , which is 8.41

Kindly note the recorded max activation for CC(=O)NC(=O)c1ccccc1O , which is -2.9

Kindly note the recorded max activation for CCN[C@H]1C[C@H](C)S(=O)(=O)c2sc(S(N)(=O)=O)cc21 , which is 0.198

Kindly note the recorded max activation for CC[N+](C)(CC)CCOC(=O)C1c2ccccc2Oc2ccccc21 , which is 0.786

Kindly note the recorded max activation for O=[N+]([O-])c1ccc(/C=N\O)o1 , which is -2.63

Kindly note the recorded max activation for CC(=O)N[C@H]1[C@H]([C@H](O)[C@H](O)CO)OC(C(=O)O)=C[C@@H]1N=C(N)N , which is -1.75

----------
# measurement.notes: qHTS RealTime-Glo MT Cell Viability Assay in HEK293 cells - 0 hour (AID 1224880); also: top concentration of the series differs between compounds; % is scaled to controls: 0 for no effect and ±100 for the full control effect; nearly all actives have a fitted effect of over 45% in size
# reported.conditions: RealTime-Glo luminescence; series mostly up to 76.8 µM
Records with an inconclusive call do not appear. The source made the active and inactive calls. Calls follow the shape of the dose curve; as a rule, active = well fitted cell-killing curve with a large enough effect in the repeat runs; inconclusive = weak or mixed curves, or effect the other way; inactive = flat fitted curve, though single readings scatter.
outcome.measure: activity change, negative = cytotoxicity

# example entries with known answers
{"compound": "C=CC(C)(CCC=C(C)C)OC(=O)CC (stereo not given)", "outcome.measure": "activity change, negative = cytotoxicity", "measured.value": "inactive"}
{"compound": "C[C@@H]1CCC[C@H](C)N1", "outcome.measure": "activity change, negative = cytotoxicity", "measured.value": "inactive"}
{"compound": "NC(=O)N1c2ccccc2CC(=O)c2ccccc21", "outcome.measure": "activity change, negative = cytotoxicity", "measured.value": "inactive"}
{"compound": "CC(C)C[C@@H](N)C(=O)O", "outcome.measure": "activity change, negative = cytotoxicity", "measured.value": "5.62% [at 15.8 µM] (inactive)"}
{"compound": "O=C(O)c1cn(C2CC2)c2cc(N3CCNCC3)c(F)cc2c1=O", "outcome.measure": "activity change, negative = cytotoxicity", "measured.value": "inactive"}
{"compound": "CCOC(=O)COC(=O)c1ccccc1C(=O)OCC", "outcome.measure": "activity change, negative = cytotoxicity", "measured.value": "inactive"}
{"compound": "CNC(=O)Nc1ccc(Cl)c(Cl)c1", "outcome.measure": "activity change, negative = cytotoxicity", "measured.value": "inactive"}
{"compound": "CC(=O)O[C@@]12CO[C@@H]1C[C@H](O)[C@@]1(C)C(=O)[C@H](O)C3=C(C)[C@@H](OC(=O)[C@H](O)[C@@H](NC(=O)OC(C)(C)C)c4ccccc4)C[C@@](O)([C@@H](OC(=O)c4ccccc4)[C@H]21)C3(C)C", "outcome.measure": "activity change, negative = cytotoxicity", "measured.value": "inactive"}

Kindly note the recorded activity change, negative = cytotoxicity for CN(C)CCCCCCN(C)C , which is inactive

Kindly note the recorded activity change, negative = cytotoxicity for CCN[C@@H]1C[C@H](N)[C@@H](OC2OC(CN)=CCC2N)[C@H](O)[C@H]1O[C@H]1OC[C@](C)(O)[C@H](NC)[C@H]1O (stereo not given in full) , which is 1.44% [at 0.29 µM] (inactive)

----------
# measurement.notes: qHTS assay to identify aromatase inhibitors - cell viability counter screen (AID 743084);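 also: cells stimulated with testosterone during compound exposure; % is scaled to controls: 0 for no effect and ±100 for the full control effect; nearly all actives have a fitted effect of over 55% in size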
# reported.conditions: MCF-7 aro ERE viability, CellTiter-Fluor, 24 h; series mostly up to 70.3 µM
Inconclusive results are not listed. The source made the active and inactive calls. Calls come from the whole dose curve; as a rule, active = well fitted cell-killing curve with a large enough effect in the repeat runs; inconclusive = weak or mixed curves, or effect the other way; inactive = no such curve, though single readings can be large or run the other way.
outcome.measure: outcome

# example entries with known answers
{"compound": "CCOC(=O)c1ccccc1", "outcome": "inactive"}
{"compound": "CCOCC(C)O (configuration not stated)", "outcome": "inactive"}
{"compound": "NS(=O)(=O)Cc1noc2ccccc12", "outcome": "inactive"}
{"compound": "COc1ccc2cc1Oc1cc3c(cc1OC)CC[N+](C)(C)[C@H]3Cc1ccc(cc1)Oc1c(OC)c(OC)cc3c1[C@@H](C2)[N+](C)(C)CC3", "outcome": "inactive"}
{"compound": "CC(=O)c1cnccn1", "outcome": "inactive"}

Kindly note the recorded outcome for CCCCCCC1CCC(=O)O1 (configuration not stated) , which is inactive

Kindly note the recorded outcome for COc1ccccc1OCC1CNC(=O)O1 (configuration not stated) , which is inactive

Kindly note the recorded outcome for C[N+]1(CC2COC(c3ccccc3)(c3ccccc3)O2)CCCCC1 (configuration not stated) , which is inactive

Kindly note the recorded outcome for O=C(c1ccccc1)C1(O)CCCCC1 , which is inactive

Kindly note the recorded outcome for CC12CCC(C(=O)C1=O)C2(C)C (configuration not stated) , which is inactive

Kindly note the recorded outcome for C[N+]12CCC(CC1)C(OC(=O)C(O)(c1ccccc1)c1ccccc1)C2 (configuration not stated) , which is inactive

Kindly note the recorded outcome for Cc1nc2ccc(CN(C)c3ccc(C(=O)N[C@@H](CCC(=O)O)C(=O)O)s3)cc2c(=O)[nH]1 , which is inactive

Kindly note the recorded outcome for C[N+](C)(C)CCCCCCCCCC[N+](C)(C)C , which is inactive

----------
# target.system: Cytochrome P450 2C9 (Homo sapiens)
# measurement.notes: Cytochrome P450 Family 2 Subfamily C Member 9 (CYP2C9) small molecule antagonists: luciferase reporter qHTS assay (AID 1671198); also: % is scaled to controls: 0 for no effect and ±100 for the full control effect; nearly all actives have a fitted effect of over 50% in size
# reported.conditions: P450-Glo CYP2C9 enzyme assay, luciferin luminescence; series mostly up to 115 µM
# From the text: U.S. Tox21 Program National Center for Advancing Translational Sciences [NCATS] U.S. Environmental Protection Agency [EPA] National Institutes of Environmental Health Sciences [NIEHS] National Toxicology Program [NTP] U.S. Food and Drug Administration [FDA] […] The luciferin products formed are detected with a luciferin detection reagent, and the amount of light produced is proportional to CYP activity. […]
Records with an inconclusive call do not appear. Calls of active or inactive are those of the source. The call rests on the fitted dose curve; in most records, active means well fitted inhibition curve with a large enough effect in the repeat runs; inconclusive means weak or mixed curves; inactive means no such curve, though single readings can be large or run the other way.
In this exercise, the only acceptable responses are yes (1) for active, no (0) for inactive

{"compound": "CN1CC(=O)N/C1=N/C(=O)Nc1cccc(Cl)c1", "discrete.label": "no (0)"}

Ask: How did this test come out for CCCCCCCCCCCCCCC(=O)O ?
Reply: no (0)

Ask: How did this test come out for OCCc1ccccn1 ?
Reply: no (0)

Ask: How did this test come out for CC(C)C1CCC(O)CC1 (centres undefined) ?
Reply: no (0)

Ask: How did this test come out for C=CCCCCCCCCC(=O)OCC ?
Reply: no (0)

Ask: How did this test come out for Clc1cc(Cl)cc(Cl)c1 ?
Reply: no (0)

Ask: How did this test come out for C=CC(=O)OCCCl ?
Reply: no (0)

Ask: How did this test come out for CC(N)C12CC3CC(CC(C3)C1)C2 (centres undefined) ?
Reply: no (0)

Ask: How did this test come out for CN1[C@@H]2CC[C@H]1CC(OC(=O)C(O)c1ccccc1)C2 (some centres undefined) ?
Reply: no (0)

Ask: How did this test come out for CCCC(C)C(=O)OCC (centres undefined) ?
Reply: no (0)

Ask: How did this test come out for CCC(C)(CCCC(C)C)OC(C)=O (centres undefined) ?
Reply: no (0)
